Test system: SNB-19 CNS
test_summary: NCI tumour cell line growth inhibition, 48 h

molecule	bound_type	TGI / µM
CC1CCC2C(C)C(OC(=O)CCC(=O)O)OC3OC4(C)CCC1C32OO4 (stereo unspecified)	>	100
CSc1ccccc1NC1=NCCO1	>	100
CCN1CCCCCCCCCC(=N/O)/C(=N\O)C1	>	100
CN(C)C12C=CC=CC3=C(c4ccccc4)C(c4ccccc4)=C(c4ccccc4)C31c1ccccc1C2 (stereo unspecified)	>	100
Cc1cc2c(cc1Cl)SC(NNC(=O)c1ccccc1)=NS2(=O)=O	>	10
Cn1c(=O)oc2cc(C(O)CN3CCN(Cc4ccc5c(c4)OCO5)CC3)ccc21 (stereo unspecified)	>	100
C=C1C2CCCC1C1(S(C)(=O)=O)CCCCC21O (stereo unspecified)	>	100
Cc1c(Br)c(Br)c2c3c1nc(N1CCNCC1)n3CCC2	=	3.01
COc1c(CC(C)=O)c2ccccc2n1C(C)=O	>	100
Cc1cc2c(C(C)C)c(O)c(O)c(/C=N/O)c2c(O)c1-c1c(C)cc2c(C(C)C)c(O)c(O)c(/C=N/O)c2c1O	=	23.5
COC1(OC)CCCCCCCCC(OC)(OC)CCCCCCCC1	>	100
O=c1c2c3c(sc2nc2n1sc1nc4sc5c(c4c(=O)n12)CCCC5)CCCC3	>	100
Cc1ccc(/C=C(/C#N)n2nnc3cccc(F)c32)cc1	=	17.4
COc1ncnc2c(Cl)c(C(O)c3ccccc3)c(Cl)cc12 (stereo unspecified)	=	79.9
c1ccc(C2=Nc3ccccc3N3CNN=C23)cc1	>	100
O=S(=O)(Cc1ccccc1)c1nnc(S(=O)(=O)c2ccc(Cl)cc2)s1	=	60.2
CC(NC1=NCCO1)c1ccsc1 (stereo unspecified)	>	100
Cc1cc(C(O)CCCc2ccccc2)cc(C)c1O (stereo unspecified)	=	67.2
NNC(=O)N/N=C(/CC1(O)C(=O)Nc2ccc(Br)cc21)c1ccccc1 (stereo unspecified)	=	46.2
COC(=O)C1=C(N)C2=C(N)Oc3ccccc3C2CC1=C(C#N)C#N (stereo unspecified)	=	70.4
COc1ccc(C[C@@H]2OC3(C=CC(=O)CC3Sc3ccccc3)O[C@H]2Cc2ccc(OC)cc2)cc1 (stereo partly specified)	=	10.3
CNc1ccc(C)cc1S(=O)(=O)c1ccccc1[N+](=O)[O-]	>	100
O=Nn1c2ccccc2c2ccccc21	>	100
O=C(NNC1=NS(=O)(=O)c2ccccc2N1c1ccccc1)c1cnccn1	>	100
N#C/C(=C\c1ccc(O)c(O)c1)C(=O)NCc1cccc(C(F)(F)F)c1	>	100
NN/C(=N\S(=O)(=O)c1cc(S(=O)(=O)c2ccccc2)cs1)Nc1ccc(Cl)cc1	>	100
CCN(CC)CCOc1ccc2c(-c3ccccc3)c(-c3ccc(OC)cc3)c(=O)oc2c1	=	22.2
CCCCN(CCCC)CC(C(=O)Nc1ccc([N+](=O)[O-])cc1[N+](=O)[O-])/C(C)=N\NC(=O)c1ccncc1 (stereo unspecified)	>	100
O=c1c2ccccc2nc(-c2ccccc2)n1/N=C/c1ccccc1[N+](=O)[O-]	=	56.7
CC1(C)CCC2(C(=O)O)C(O)CC3(C)C(=CCC4C5(C)CCC(OC6OCC(O)C(O)C6OC6OCC(O)C(O)C6OC6OCC(O)C(OC7OC(CO)C(O)C(O)C7O)C6O)C(C)(C)C5CCC43C)C2C1 (stereo unspecified)	=	43.6
CCN(CC)CC(C(C)=O)C(c1ccccc1)c1c(O)c2ccccc2oc1=O (stereo unspecified)	>	100
[pH]1p2[pH]p3p1p3[pH]2.c1cc[c]([Ge]([c]2ccccc2)[c]2ccccc2)cc1.c1cc[c]([Ge]([c]2ccccc2)[c]2ccccc2)cc1.c1cc[c]([Ge]([c]2ccccc2)[c]2ccccc2)cc1	=	27.2
c1ccc(C2(c3cc4ccccc4[nH]3)OCCO2)nc1	>	100
CC(=O)OC/C=C\Cn1ncc(=O)[nH]c1=O	>	100
C/C=C(/C)C(=O)OC1C=C(CO)C(=O)C(OC(=O)C2(C)OC2C)C1C(C)C (stereo unspecified)	=	5.87
COc1ccc(CCn2ccc(C)n2)c(OC)c1	>	100
Cn1ccc(S(=O)(=O)N2CCC[C@H](Nc3nccc(-c4c(-c5cccc(O)c5)nc5occn45)n3)C2)n1	>	100
Nc1ccc(C2(c3ccc(N)cc3)C3CC4CC(C3)CC2C4)cc1	=	33.3
Nc1nc(N)c2c(Cl)c(CNc3ccc(Cl)c(Cl)c3)ccc2n1	=	17.7
C=C1C(=O)O[C@H]2C(=O)[C@H](C)CCC/C(C)=C/CC[C@@]3(C)O[C@@H]3C[C@@H]12	=	24.1
N#CC(Cl)CS(=O)(=O)c1ccccc1 (stereo unspecified)	=	35.1

---

Test system: SW-620 colon
test_summary: NCI tumour cell line growth inhibition, 48 h
quantity_kind: TGI

compound	quantity_kind	endpoint_value
CC(C)=NC(C(=O)O)C(C)(C)S (stereo unspecified)	TGI	> 100 µM
CCOC(=O)C1(C)C2=CC=C(O2)C(C)(C)C2=CC=C(O2)C(C)(C)C2=CC=C(O2)C(C)(C)C2=CC=C1O2	TGI	> 100 µM
CCP(C)(=O)CC	TGI	> 100 µM
O=C1NC(c2cccc3ccccc23)Nc2ccc(Cl)cc21 (stereo unspecified)	TGI	17.2 µM
COc1ccc(/C=C/c2cc(O)cc(OC3OC(CO)C(O)C(O)C3O)c2)cc1O (stereo unspecified)	TGI	> 100 µM
O=Nn1c2ccccc2c2ccccc21	TGI	> 100 µM
CCN(CC)Cc1cc(Nc2ccnc3ccc(OC)cc23)ccc1O	TGI	19.7 µM
NC(N)=N/N=C/c1c(-c2ccc([N+](=O)[O-])cc2)nc2sc(Cl)cn12	TGI	1.46 µM
O=S1(=O)C[C@H](NCc2ccccc2)[C@H](NCc2ccccc2)C1	TGI	> 100 µM
CCOC(=O)C(Cc1ccccc1)n1c(O)c(/C=N/c2ncc(Cc3ccc(Cl)cc3Cl)s2)sc1=S (stereo unspecified)	TGI	> 100 µM
CC(=O)NC(CCc1ccc(Cl)c(Cl)c1)c1cccc(O)c(=O)c1 (stereo unspecified)	TGI	23.7 µM

---

Tested on: T-47D breast
test_summary: NCI tumour cell line growth inhibition, 48 h
quantity_kind: TGI (µM)

compound	measured_target	quantity_kind	readout_units	bound_type	endpoint_value
CC(O)C1(O)C(O)CC(OC2c3cc4c(c(O)c3[C@@H]3C[C@@]2(C)OC32C=c3cc[nH]c3=N2)C(=O)c2cccc(O)c2C4=O)OC1C (stereo partly drawn)	T-47D breast	TGI	µM	=	9.07
CC(=O)NC(CCc1ccc(Cl)c(Cl)c1)c1cccc(O)c(=O)c1 (stereo not drawn)	T-47D breast	TGI	µM	=	38.6
CC(C)=NC(C(=O)O)C(C)(C)S (stereo not drawn)	T-47D breast	TGI	µM	>	100

---

Test system: UACC-257 melanoma
test_summary: NCI tumour cell line growth inhibition, 48 h
quantity_kind: TGI (µM)

compound	readout_units	bound_type	endpoint_value
C=C1[C@@H](OC(C)=O)/C=C/C2C3C(=O)[C@@](C)(OC(C)=O)[C@H]([C@H](OC(C)=O)[C@]4(O)[C@@H](C)C(=O)O[C@H]4[C@H]1Cl)[C@@]23C (stereo partly drawn)	µM	>	100
COC(=O)NCCc1[nH]nc2c1C(=O)C=C(Nc1ccccc1OC)C2=O	µM	=	35.6
CC12CCC(=O)N1[C@@H](c1ccccc1)[C@@H](c1ccccc1)O2 (stereo partly drawn)	µM	>	100
CCOC(=O)C(Cc1ccccc1)n1c(O)c(/C=N/c2ncc(Cc3ccc(Cl)cc3Cl)s2)sc1=S (stereo not drawn)	µM	=	8.57
O=C(Cc1csc2[n+]1C(=O)/C(=C/c1ccc(Cl)cc1)S2)Nc1ccccc1	µM	=	58.3
CN1C(=O)[C@@H](CC2CCCC2)N(C2CCCC2)c2nc(Nc3cc(Cl)c(O)c(Cl)c3)ncc21	µM	>	100
CN1CCN(CCCCCOc2cc(O)c3c(=O)cc(-c4ccccc4)oc3c2)CC1	µM	=	3.78
O=c1[nH]c(-c2ccccc2)nc2cc([N+](=O)[O-])c(/C(Cl)=C/c3ccccc3)cc12	µM	=	48.3

---

Test system: SF-539 CNS
test_summary: NCI tumour cell line growth inhibition, 48 h
*1 amine or outer side, *2 acyl side, *3 side chain or, on linkers, in order; H or OH if unused. Where a SMILES comes first, the peptide text is derived from it. Bridges are numbered along the chain shown (N, C = ends). Roman numbers before positions name the chains, in order. [ ]: non-standard residue; d: D form. Actinocin(1to9) = Cc1c2oc3c(C)ccc(C(=O)[*:2])c3nc-2c(C(=O)[*:1])c(N)c1=O; NMeV = CN[CH](C(=O)O)C(C)C; Sar = CNCC(=O)O
Examples of molecules with documented TGI follow.

molecule	bound_type	TGI / µM
COC(=O)c1ccccc1C1CN=NC12Cc1cc3c(cc1C2=O)CCC3 (stereo not given)	>	100
CCOC(=O)CCCc1cc(=O)c2c(C)c3[nH]c4ccc(Cl)cc4c3c(C)c2[nH]1	=	31.6
COc1ccc(CC2NC(=O)C(NC(=O)c3c4nc5c(C(=O)NC6C(=O)NC(Cc7ccc(OC)cc7)C(=O)N7CCCC7C(=O)N(C)CC(=O)N(C)C(C(C)C)C(=O)OC6C)ccc(C)c5oc-4c(C)c(=O)c3N)C(C)OC(=O)C(C(C)C)N(C)C(=O)CN(C)C(=O)C3CCCN3C2=O)cc1 (stereo not given) (I: TY(Me)P[Sar][NMeV] / II: TY(Me)P[Sar][NMeV]; ester I:1-I:C, II:1-II:C; linker I:N-II:N via Actinocin(1to9); configuration not given here)	=	0.0257
O=C(CC(=O)N1N=C(n2ccc3ccccc32)CC1c1ccccc1)Nc1ccccc1Cl (stereo not given)	>	100
C=CC(=O)C#Cc1cnc(OC)nc1OC	=	30.5
CC[C@]1(O)CC2CN(CCc3c([nH]c4ccccc34)C(C(=O)OC)(c3cc4c(cc3OC)N(C=O)[C@H]3[C@@](O)(C(=O)OC)[C@H](OC(C)=O)[C@]5(CC)[C@@H]6C[C@@H]6CN6CC[C@]43[C@@H]65)C2)C1 (stereo not given in full)	<	0.00325
CC(C)(Oc1cccc(N2CCC[C@@H](C(=O)N(Cc3ccc(-c4cn[nH]c4)cc3)C3CC3)C2)c1)C(=O)N1CCNCC1	=	24.2
O=S1(=O)C[C@H](NCc2ccccc2)[C@H](NCc2ccccc2)C1	>	100
CN1CCC(=C(c2ccc(Cl)cc2)c2ccccn2)CC1	>	100
C=C1CC[C@@](C)(c2cc(Br)c(C)cc2OC(C)=O)[C@H]1C	=	26.4
CC(C)N(CCNc1nc(C(Cl)(Cl)Cl)nc2cc(Cl)ccc12)C(C)C	=	3.38
O=c1c2c3c(sc2nc2n1sc1nc4sc5c(c4c(=O)n12)CCCC5)CCCC3	>	100
Cc1cc(N(CCC#N)CCC#N)ccc1/C(Sc1ccccc1)=C(\NC(=O)/C=C/c1ccccc1)C(=O)Sc1ccccc1	=	3.44
COc1ccc(-c2cc(-c3ccc(Cl)cc3)nc(SCCCC(=O)NO)n2)cc1OC	=	3
CCOC(=O)C(Cc1ccccc1)n1c(O)c(/C=N/c2ncc(Cc3ccc(Cl)cc3Cl)s2)sc1=S (stereo not given)	=	6.95
